The origin of these recorded values is patent US20250011363A1.

Please go through the items and note down their Binding affinity (RU).
Molecular target: acetylcholine receptor
Assay: SPR, receptor immobilized, peptide 10 uM
// note: answer is a bare numeric in RU

Documented Binding affinity (RU) of RYNWK [5mer-777] : 28

Documented Binding affinity (RU) of KFEKK [5mer-1076] : 21

Documented Binding affinity (RU) of RTNEKR [6mer-2-883] : 22

Documented Binding affinity (RU) of KKMDRR [6mer-2-813] : 29

Documented Binding affinity (RU) of RMAGR [5mer-1059] : 29

Documented Binding affinity (RU) of KEEHRR [6mer-2-858] : 30

Documented Binding affinity (RU) of KRVIRR [6mer-1-152] : 154

Documented Binding affinity (RU) of RNTPRK [6mer-2-826] : 11
